Origin of the recorded values: ChEMBL document CHEMBL4251557

- Tested target: Neuraminidase (Influenza A virus) (UniProt A5Z252)
- Cond: Influenza A virus (A/Anhui/1/2005(H5N1)); at 100 µM
In this section we review reported inhibition values for a set of molecules.
Dear colleague, please send the value followed by its unit.

Study these solved cases before continuing.
[[record]]
compound = "CCC(CC)O[C@@H]1C=C(C(=O)O)C[C@H](NC(=O)C(C)C)[C@H]1NC(C)=O"
value = "47.6%"

[[record]]
compound = "CCC(CC)O[C@@H]1C=C(C(=O)O)C[C@H](NC(=O)Cc2c[nH]c3ccccc23)[C@H]1NC(C)=O"
value = "47.3%"


The measured inhibition associated with CCC(CC)O[C@@H]1C=C(C(=O)O)C[C@H](NC(=O)[C@@H](C)N)[C@H]1NC(C)=O reads 49.3%

Entry CCOC(=O)C1=C[C@@H](OC(CC)CC)[C@H](NC(C)=O)[C@@H](N)C1 ; inhibition = 95.5%

Value of inhibition reported for the molecule CCC(CC)O[C@@H]1C=C(C(=O)O)C[C@H](NC(=O)CN(C)C)[C@H]1NC(C)=O is 58.2%

* * *

Quick record of IC50 values for Neuraminidase (Influenza A virus).
Write the answer as a number in nM, unit excluded.

[[record]]
compound = "CCC(CC)O[C@@H]1C=C(C(=O)O)C[C@H](NC(=O)C(F)F)[C@H]1NC(C)=O"
unit_string = "nM"
value = 190

[[record]]
compound = "CCC(CC)O[C@@H]1C=C(C(=O)O)C[C@H](NC(=O)CN)[C@H]1NC(C)=O"
unit_string = "nM"
value = 2670

[[record]]
compound = "CCC(CC)O[C@@H]1C=C(C(=O)O)C[C@H](NC(=O)CF)[C@H]1NC(C)=O"
unit_string = "nM"
value = 228

[[record]]
compound = "CCC(CC)O[C@@H]1C=C(C(=O)O)C[C@H](NC(=O)C(F)(F)F)[C@H]1NC(C)=O"
unit_string = "nM"
value = 266

[[record]]
compound = "CCC(CC)O[C@@H]1C=C(C(=O)O)C[C@H](NC(C)=O)[C@H]1NC(C)=O"
unit_string = "nM"
value = 238


Per the record, C=CC(=O)N[C@H]1CC(C(=O)O)=C[C@@H](OC(CC)CC)[C@@H]1NC(C)=O has IC50 of 2980

# molecule CCC(CC)O[C@@H]1C=C(C(=O)O)C[C@H](NC=O)[C@H]1NC(C)=O ; its IC50 = 1290

* * *

- Tested target: Neuraminidase (Influenza A virus)
- Cond: Influenza A virus (A/Anhui/1/2005(H5N1)); at 100 µM
# cutoff 60% applies to inhibition; >= gives Fulfilled, < gives Not fulfilled

[[record]]
compound = "CCCC(=O)N[C@H]1CC(C(=O)O)=C[C@@H](OC(CC)CC)[C@@H]1NC(C)=O"
label_value = "Fulfilled"

[[record]]
compound = "CCC(CC)O[C@@H]1C=C(C(=O)O)C[C@H](NC(=O)CCc2ccccc2)[C@H]1NC(C)=O"
label_value = "Not fulfilled"

[[record]]
compound = "CCC(=O)N[C@H]1CC(C(=O)O)=C[C@@H](OC(CC)CC)[C@@H]1NC(C)=O"
label_value = "Fulfilled"


Query :: Does the reported inhibition for CCCCC(=O)N[C@H]1CC(C(=O)O)=C[C@@H](OC(CC)CC)[C@@H]1NC(C)=O fall at or above the 60% mark?
Result :: Not fulfilled

Query :: For this molecule, is measured inhibition 60% or higher? CCC(CC)O[C@@H]1C=C(C(=O)O)C[C@H](NC(=O)Cc2ccc(C)cc2)[C@H]1NC(C)=O
Result :: Not fulfilled

* * *

Each record here notes measured inhibition.
- Tested target: Neuraminidase (Influenza A virus) (UniProt A5Z252)
- Cond: Influenza A virus (A/Anhui/1/2005(H5N1)); at 100 µM
Please respond with the number in % and leave the unit unwritten.

Note to self: inhibition recorded for CCC(CC)O[C@@H]1C=C(C(=O)O)C[C@H](NC(=O)/C=C/c2ccccc2)[C@H]1NC(C)=O was 50.2

// inhibition value for CCC(CC)O[C@@H]1C=C(C(=O)O)C[C@H](NC(=O)CCCc2ccccc2)[C@H]1NC(C)=O : 36

Measured inhibition of CCCCCC(=O)N[C@H]1CC(C(=O)O)=C[C@@H](OC(CC)CC)[C@@H]1NC(C)=O : 33.2

Short answer for CCC(CC)O[C@@H]1C=C(C(=O)O)C[C@H](NC(=O)[C@H](O)CCc2ccccc2)[C@H]1NC(C)=O : inhibition was 60.4

* * *

- Tested target: UniProt:A5Z252
- Cond: Influenza A virus (A/Anhui/1/2005(H5N1)); at 10 µM
Listed here: items and their measured inhibition.
Write it as a number; the unit % goes unstated.

These recorded examples may help you get a feel for the data.
[[record]]
compound = "CCC(CC)O[C@@H]1C=C(C(=O)O)C[C@H](NC(=O)C(C)C)[C@H]1NC(C)=O"
unit_string = "%"
value = 14.2

[[record]]
compound = "CCC(CC)O[C@@H]1C=C(C(=O)O)C[C@H](NC(=O)Cc2ccc(C)cc2)[C@H]1NC(C)=O"
unit_string = "%"
value = 10

[[record]]
compound = "CCC(=O)N[C@H]1CC(C(=O)O)=C[C@@H](OC(CC)CC)[C@@H]1NC(C)=O"
unit_string = "%"
value = 47.9

[[record]]
compound = "CCCC(=O)N[C@H]1CC(C(=O)O)=C[C@@H](OC(CC)CC)[C@@H]1NC(C)=O"
unit_string = "%"
value = 14.7

[[record]]
compound = "CCC(CC)O[C@@H]1C=C(C(=O)O)C[C@H](NC(=O)Cc2c[nH]c3ccccc23)[C@H]1NC(C)=O"
unit_string = "%"
value = 12.8


The measured inhibition associated with CCC(CC)O[C@@H]1C=C(C(=O)O)C[C@H](NC(=O)[C@H](O)CCc2ccccc2)[C@H]1NC(C)=O reads 49.2

response.value for CCC(CC)O[C@@H]1C=C(C(=O)O)C[C@H](NC(=O)[C@@H](C)N)[C@H]1NC(C)=O (field: inhibition) = 18.8

Looking up CCOC(=O)C1=C[C@@H](OC(CC)CC)[C@H](NC(C)=O)[C@@H](N)C1 , I found its inhibition recorded as 91

Reported inhibition of CCC(CC)O[C@@H]1C=C(C(=O)O)C[C@H](NC(=O)CN(C)C)[C@H]1NC(C)=O : 30

Please fill in: inhibition reported for CCC(CC)O[C@@H]1C=C(C(=O)O)C[C@H](NC(=O)/C=C/c2ccccc2)[C@H]1NC(C)=O = 14.5
